# assay_summary: NCI Yeast Anticancer Drug Screen. Data for the mlh1 rad18 strain (AID 175)
# run_parameters: S. cerevisiae mlh1 rad18 strain growth inhibition; at 50.0 µM; stronger effect = higher value
# Description: Growth inhibition of yeast strains with defined genetic alterations is measured as a screen for potential anti-cancer activity. Selected strains with alterations in DNA damage repair or cell cycle control were exposed to compounds and growth inhibition was measured relative to vehicle treated controls. The strain used in this assay is mlh1 rad18
Compounds without any hit were thinned out: in the full panel of roughly 79,000, 15% have a hit.
measured_quantity: growth inhibition (%)

> print(dat)
                                    compound  readout.units  measured.number
 1  CCC(C(=O)O)C(C)(C)C (stereo unspecified)              %              9.3
 2  CSc1nc(Br)nc2c1ncn2C1CC(Oc2ccc(C)cc2)C(COc2ccc(C)cc2)O1 (stereo unspecified)              %            -23.8
 3    CCCC(O)c1ccccc1Cl (stereo unspecified)              %              5.3
 4           Cc1cc(O)c(C(C)C)cc1N=Cc1ccccc1O              %             -5.8
 5  Cc1cc2c(cc1Cl)SC(NNc1ccc([N+](=O)[O-])cc1)=NS2(=O)=O              %             26.9
 6  O=C(O)C(c1ccccc1)C(F)(F)F (stereo unspecified)              %             0.85
 7   O=c1[nH]nc(S(=O)(=O)c2ccccc2)c(=O)[nH]1              %             -3.2
 8    N#Cc1c(N)[n+]([O-])c2c([n+]1[O-])CCCC2              %            -3.35
 9  COc1cc(C(=O)NOCc2cccc(C(F)(F)F)c2)cc(OC)c1OC              %             6.25
10              CCCCCCCCCCCCCCCC(=O)OCC(=O)O              %              1.3
11  O=C(O)c1cc2ccccc2c(N=Nc2cc(C(F)(F)F)ccc2Cl)c1O              %            -13.1
12  C[S+]1Cc2nc3ccccc3n2C1c1c(F)cccc1F (stereo unspecified)              %             2.35
13         CC(=O)Nc1nc(NC(C)=O)c2nc(C)cnc2n1              %             25.2
14          CCO/C(O)=C(/C#N)C(=O)NC1=NCCCCC1              %             16.4
15            O=C(O)c1cc(Cl)ccc1[N+](=O)[O-]              %               11
16                     COc1cccc(-c2ccccc2)c1              %            -16.6
17   CC(C)CCOCC(O)CNCCN (stereo unspecified)              %             12.3
18              O=c1[nH]nc(Cc2ccc(Cl)cc2)n1O              %             1.65
19              Cc1ccc(CNC(=S)NC2CCCCC2)cc1C              %             96.3
20                  Nc1cc(=O)c2n[nH]nc2[nH]1              %            -16.9
21                O=C(O)c1c(O)c(O)cc2ccccc12              %             23.4
22  C/C(=N\N=C(N)N)c1ccc(NC(=S)Nc2ccccc2)cc1              %              9.5
23  O=C(Nc1ccccc1C(F)(F)F)Oc1ccc(Cl)cc1Cc1ccccc1              %             99.5
24  C/C(CC(=O)Nc1cccc([N+](=O)[O-])c1)=N\NC(=O)C[n+]1ccccc1              %            -3.35
25  O=C1Oc2cc3c(c4cccc1c24)OCN(c1ccc(Cl)cc1)C3              %             37.5
26  CN(C)CCCNc1ccc2nnn3c4ccc(O)cc4c(=O)c1c23              %               19
